pIC50 listing for selected molecules.
target-or-test-system: human NK3 receptor (Homo sapiens, UniProt P29371)
Construct: expressed in transfected cells; host or cells: CHO cell membranes
Sequence (P29371 whole entry): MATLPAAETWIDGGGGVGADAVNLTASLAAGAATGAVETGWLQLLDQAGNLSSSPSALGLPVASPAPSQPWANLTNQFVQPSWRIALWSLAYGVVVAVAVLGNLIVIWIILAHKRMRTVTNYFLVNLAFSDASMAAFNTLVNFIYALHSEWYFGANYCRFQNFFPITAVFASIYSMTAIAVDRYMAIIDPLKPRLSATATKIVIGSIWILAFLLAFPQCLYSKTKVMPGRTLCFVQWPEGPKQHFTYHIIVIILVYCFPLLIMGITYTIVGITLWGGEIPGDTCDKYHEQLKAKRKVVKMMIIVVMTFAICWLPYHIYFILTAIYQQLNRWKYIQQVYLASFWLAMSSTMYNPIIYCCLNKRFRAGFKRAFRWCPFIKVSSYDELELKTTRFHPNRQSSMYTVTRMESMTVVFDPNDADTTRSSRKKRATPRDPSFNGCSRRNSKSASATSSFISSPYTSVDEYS
measurement-protocol: In vitro human NK3 receptor binding assay ([125I]-[MePhe7]neurokinin B, CHO cell membranes)
pIC50: −log10 of the molar value.
endpoint-name: pIC50

>>> assay_value("CC(C)[C@H](OC(=O)N[C@](C)(Cc1ccccc1)C(=O)N[C@@H](Cc1ccc(O)cc1)C(=O)NCCCCCCCO)c1ccccc1")
7.92
>>> assay_value("CC(C)[C@H](OC(=O)N[C@](C)(Cc1ccccc1)C(=O)NCCCCCCCCC(N)=O)c1ccccc1")
7.28
>>> assay_value("CC(C)[C@H](OC(=O)N[C@](C)(Cc1ccccc1)C(=O)N[C@@H](Cc1ccc(O)cc1)C(=O)NCCCCCCO)c1ccccc1")
7.82
>>> assay_value("C[C@](Cc1ccccc1)(NC(=O)OC(c1ccccc1)C1CCCC1)C(=O)NCCCCCCCCC(N)=O (some centres unmarked)")
7.40
>>> assay_value("CC(C)[C@@H](OC(=O)N[C@](C)(Cc1ccccc1)C(=O)N[C@@H](CO)c1ccccc1)c1ccccc1")
7.03
